# Test system: primary human hepatic stellate cells (donor 1)
# Protocol Details: scaled lipid accumulation score (0 = DMSO-like, 1 = nortriptyline-like); higher = stronger HSC inactivation (lipid re-accumulation), active = hit call of the paper
# Assay Conditions: 48 h
Among all 5,800 compounds or so, about 620 (11%) showed activity.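 Rule for the calls: active = score above a cut-off or among the top three wells of a plate; in these data no inactive exceeds 0.85.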 The sample as a whole holds a higher share of actives than the screen did.
Allowed answers: active, inactive

Below, 3 compounds whose answers are already recorded.
[[record]]
compound = "C=C1[C@H]2C[C@@]3([C@@H]1O)[C@@H](C[C@@H]2O)[C@]12[C@@H]4C[C@H]3[C@H]1N(CC)C[C@]4(C)CC[C@@H]2O [Napelline]"
assayed_target = "primary human hepatic stellate cells (donor 1)"
group_label = "inactive"

[[record]]
compound = "CC1=CC(=O)C2=C(C)C[C@H](O)[C@@H]3[C@H](OC(=O)[C@H]3C)[C@H]12 [Austricine hydrate]"
assayed_target = "primary human hepatic stellate cells (donor 1)"
group_label = "inactive"

[[record]]
compound = "O=c1[nH]c2ccccc2n1CCCN1CCC(n2c(=O)[nH]c3cc(Cl)ccc32)CC1 [Domperidone]"
assayed_target = "primary human hepatic stellate cells (donor 1)"
group_label = "inactive"


Query: Answer briefly: the call reported for O=c1c2ccccc2[se]n1-c1ccccc1 [Ebselen] in this assay.
Result: active

Query: Now consider O=C(CCCN1CCC(n2c(=O)[nH]c3ccccc32)CC1)c1ccc(F)cc1 [Benperidol] and answer again.
Result: inactive

Query: Now consider Cc1cc2c(C(C)C)c(O)c(O)c(C=O)c2c(O)c1-c1c(C)cc2c(C(C)C)c(O)c(O)c(C=O)c2c1O [Gossypol] and answer again.
Result: inactive

Query: Now consider CC(=O)O[C@H]1CC[C@@]2(C)C(=CC[C@@H]3[C@@H]2CC[C@]2(C)C(=O)CC[C@@H]32)C1 [Dehydroisoandosterone 3-acetate] and answer again.
Result: inactive

Query: Now consider O=c1[nH]c2ccccc2n1C1CCN(CCCC(c2ccc(F)cc2)c2ccc(F)cc2)CC1 [Pimozide] and answer again.
Result: inactive

----------
The entries below come with measured scaled lipid accumulation score values attached.
# Tested on: primary human hepatic stellate cells (donor 1)
# Protocol Details: scaled lipid accumulation score (0 = DMSO-like, 1 = nortriptyline-like); higher = stronger HSC inactivation (lipid re-accumulation), active = hit call of the paper
# Assay Conditions: library stock concentration: 10 mM; 48 h
Screen size: about 5,800 compounds; about 620 (11%) showed activity. The sample as a whole holds a higher share of actives than the screen did.

[[record]]
chemical_smiles = "O=C[C@H](Cl)[C@@H](O)[C@H](O)[C@H](O)CO"
measured_result = "≤ -0.07 (inactive)"


In the following, a different compound is considered.
Query: Item: CC1=C2C(=CO[C@H](C)[C@H]2C)C(O)=C(C(=O)O)C1=O Test system: primary human hepatic stellate cells (donor 1) Read-out: scaled lipid accumulation score Value: ?
Result: ≤ 0 (inactive)

----------
# Tested on: primary human hepatic stellate cells (donor 1)
# Protocol Details: scaled lipid accumulation score (0 = DMSO-like, 1 = nortriptyline-like); higher = stronger HSC inactivation (lipid re-accumulation), active = hit call of the paper
# Assay Conditions: library stock concentration: 10 mM; 48 h
Where a name gives a salt, the structure may show the parent alone. Screen size: about 5,800 compounds; about 620 (11%) showed activity.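 How the source made its calls: active = score above a cut-off or among the top three wells of a plate; in these data no inactive exceeds 0.85.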 The list comes from a sample in which actives are over-represented; it also holds close analogues and randomly drawn compounds.
Allowed answers: active, inactive

[[record]]
compound = "NC(=O)C[S@@+]([O-])C(c1ccccc1)c1ccccc1"
group_label = "inactive"

[[record]]
compound = "COC(=O)[C@@H](N)CCCNC(=N)N[N+](=O)[O-] [L-NAME hydrochloride]"
group_label = "inactive"

[[record]]
compound = "CCOc1ccccc1-n1c(C(C)N2CCN(C(=O)COc3ccc(Cl)cc3)CC2)nc2ccccc2c1=O (configuration not stated)"
group_label = "inactive"

[[record]]
compound = "CN1[C@@H]2CC[C@H]1C[C@@H](OC(=O)c1cc(Cl)cc(Cl)c1)C2 [3-Tropanyl-3,5-dichlorobenzoate]"
group_label = "inactive"

[[record]]
compound = "CN(C)C(=S)SSC(=S)N(C)C"
group_label = "inactive"


Now for another entry.
Query: Answer briefly: the call reported for CO[C@H]1CC=C2CCN3CCC4=C(CC(=O)OC4)[C@]23C1 [Dihydro-beta-erythroidine hydrobromide] in this assay.
Result: inactive

----------
# Tested on: primary human hepatic stellate cells (donor 1)
# Protocol Details: scaled lipid accumulation score (0 = DMSO-like, 1 = nortriptyline-like); higher = stronger HSC inactivation (lipid re-accumulation), active = hit call of the paper
# Assay Conditions: library stock concentration: 10 mM; 48 h
Where a name gives a salt, the structure may show the parent alone. The campaign covered roughly 5,800 compounds. About 620 (11%) showed activity.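 How the source made its calls: active = score above a cut-off or among the top three wells of a plate; in these data no inactive exceeds 0.85.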 This excerpt belongs to a sample that is enriched for actives.
Allowed answers: active, inactive

[[record]]
molecule = "CCN1C[C@]2(COC(=O)c3ccccc3N3C(=O)C[C@H](C)C3=O)CC[C@H](OC)[C@@]34[C@@H]5C[C@H]6[C@H](OC)[C@@H]5[C@](O)(C[C@@H]6OC)[C@](O)([C@@H](OC)[C@H]23)[C@@H]14 [Methyllycaconitine citrate]"
group_label = "inactive"


Query: Answer briefly: the call reported for O=C1C=CC[C@@H]2[C@H]3CCCN4CCC[C@@H](CN12)[C@@H]34 in this assay.
Result: inactive

Query: Now consider BrC1C(Br)C(Br)C(Br)C(Br)C1Br (centres undefined) and answer again.
Result: inactive

Query: Now consider CC[C@H]1CN2CCc3cc(OC)c(OC)cc3[C@@H]2C[C@@H]1C[C@H]1NCCc2cc(OC)c(OC)cc21 [Emetine] and answer again.
Result: inactive

Query: Now consider c1cncc([C@@H]2CCCN2)c1 and answer again.
Result: inactive

Query: Now consider C[C@]12CCC3C(CC[C@]4(O)C[C@@H](O)CC[C@]34C=O)[C@@]1(O)CCC2C1=CC(=O)OC1 (some centres undefined) and answer again.
Result: active

Query: Now consider Fc1cc(F)c2c(c1)[C@H]1C=CC[C@@H]1C(c1cccnc1)N2 (some centres undefined) [Golgicide A] and answer again.
Result: active

Query: Now consider CC[C@H]1CN2CCc3cc(OC)c(OC)cc3[C@@H]2C[C@@H]1C[C@H]1NCCc2cc(OC)c(OC)cc21 [Emetine dihydrochloride hydrate] and answer again.
Result: inactive

Query: Now consider Cn1cc(C(=O)C(=O)N[C@H]2CN3CCC2CC3)c2ccccc21 and answer again.
Result: inactive

Query: Now consider C[N+]1(C)[C@@H]2CC(OC(=O)[C@H](CO)c3ccccc3)C[C@H]1[C@@H]1O[C@@H]12 (single isomer, unassigned; (-)) [(-)-Scopolamine methyl nitrate] and answer again.
Result: inactive

Query: Now consider NC(CP(=O)(O)O)C(=O)O (centres undefined) and answer again.
Result: inactive

Query: Now consider CNC(Cc1c[nH]c2ccccc12)C(=O)O (centres undefined) and answer again.
Result: inactive

Query: Now consider COc1ccc2c3c([nH]c2c1)C(C)=NCC3 and answer again.
Result: inactive

Query: Now consider CC[C@@H](C)C(=O)O[C@H]1[C@H](O)[C@H]2[C@@H](CN3C[C@@H](C)CC[C@H]3[C@@]2(C)O)[C@@H]2C[C@]34O[C@]5(O)[C@@H](OC(=O)[C@](C)(O)[C@@H](C)O)CC[C@@]3(C)[C@@H]5[C@@H](OC(C)=O)[C@@H](OC(C)=O)[C@H]4[C@@]21O (stereo in doubt) and answer again.
Result: inactive

----------
The entries below come with measured scaled lipid accumulation score values attached.
# Tested on: primary human hepatic stellate cells (donor 1)
# Protocol Details: scaled lipid accumulation score (0 = DMSO-like, 1 = nortriptyline-like); higher = stronger HSC inactivation (lipid re-accumulation), active = hit call of the paper
# Assay Conditions: library stock concentration: 1 mM; 48 h
Hit rate of the full screen: of about 5,800 compounds, about 620 (11%) showed activity. Only a selection was taken, and actives are over-represented in it overall.

Query: Return reported scaled lipid accumulation score; argument: CCCCCCCC/C=C\CCCCCCCC(=O)Nc1ccccc1 [Oleyl Anilide]
Result: 0.024 (inactive)

Query: Now consider CCCCCCC(C)(C)c1cc(OC)c2c(c1)OC(C)(C)[C@@H]1CC=C(C)C[C@@H]21 and answer again.
Result: ≤ 0 (inactive)

Query: Now consider CCCCC/C=C\C/C=C\C/C=C\C/C=C\CCCC(=O)NCCCC(=O)O [N-Arachidonoyl-.gamma.-Aminobutyric Acid] and answer again.
Result: 0.032 (inactive)

Query: Now consider O=c1c2ccccc2[se]n1-c1ccccc1 [Ebselen] and answer again.
Result: ≤ 0 (inactive)

Query: Now consider COc1cc(C=Cc2ccc(OC)c(O)c2)cc(OC)c1 and answer again.
Result: 0.176 (inactive)

----------
# Tested on: primary human hepatic stellate cells (donor 1)
# Protocol Details: scaled lipid accumulation score (0 = DMSO-like, 1 = nortriptyline-like); higher = stronger HSC inactivation (lipid re-accumulation), active = hit call of the paper
# Assay Conditions: library stock concentration: 10 mM; 48 h
Counter-ions that a name gives are not always drawn. Out of some 5,800 compounds screened, about 620 (11%) showed activity.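 The calls were made as follows: active = score above a cut-off or among the top three wells of a plate; in these data no inactive exceeds 0.85.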 Only a selection was taken, and actives are over-represented in it overall.
Allowed answers: 1 for active, 0 for inactive

[[record]]
compound = "CC(N)Cc1cccc(C(F)(F)F)c1 (single isomer, unassigned; (+)) [(+)-Norfenfluramine hydrochloride]"
group_label = 0

[[record]]
compound = "Oc1ccc2c3c1O[C@H]1[C@@H](O)CC[C@@]4(O)[C@@H](C2)N(CC2CCC2)CC[C@]314 [Nalbuphine hydrochloride]"
group_label = 0

[[record]]
compound = "C#CCOC(=O)C1=CCCN(C)C1 [Arecaidine propargyl ester tosylate]"
group_label = 0


Query: Answer briefly: the call reported for Fc1ccc(C(OCCN2CCN(C/C=C/c3ccccc3)CC2)c2ccc(F)cc2)cc1 in this assay.
Result: 0

Query: Now consider NC(N)=Nc1ccc2[nH]c3c(c2c1)C[C@@]1(O)[C@H]2Cc4ccc(O)c5c4[C@@]1(CCN2CC1CC1)[C@H]3O5 [GNTI dihydrochloride] and answer again.
Result: 0

Query: Now consider Oc1ccc2c3c1O[C@H]1[C@@H](O)CC[C@@]4(O)[C@@H](C2)N(CC2CCC2)CC[C@]314 [Nalbuphine] and answer again.
Result: 0
